Source: patent US10954228B2

- Assay System: Human LDHA (Homo sapiens (Human))
- Assay Info: human LDHA primary biochemical assay
- Condition Parameters: biochemical LDHA inhibitory activity, assay of Example 1; activity level classes defined in nM
Listed here are compounds together with their documented IC50.

The examples below pair each entry with its known result.
1) CC1CC=C(c2cc(-c3nn(-c4nc(C(=O)O)cs4)c(CC4CC4)c3Cc3ccc(S(N)(=O)=O)c(F)c3)ccc2F)CC1 (stereo not drawn) | < 100 nM
2) NS(=O)(=O)c1ccc(Cc2c(-c3ccc(F)c(-c4ccc(F)c(F)c4)c3)nn(-c3nc(C(=O)O)cs3)c2CC2CC2)cc1F | < 100 nM

Lab note: next compound to report on.
Prompt: Request the reported IC50 associated with CN(C)c1cccc(-c2cc(-c3nn(-c4nc(C(=O)O)cs4)c(CC4CC4)c3Cc3ccc(S(N)(=O)=O)c(F)c3)ccc2F)c1
Response: < 100 nM
